Reported observed amide hydrogen exchange rate constant kobs is given for each of the following sequences.
experiment: observed amide hydrogen exchange rate constant kobs (stretched exponential fit, FD-normalized) (s^-1); higher = faster H/D exchange (less protection); conditions: pH 3 (pH read); temperature: 20 °C; D2O: 88%
Lab note: jot down the number only; don't add units.

>>> print(df.to_string())
     item_sequence  observed_value
0  HSQFIGYPITLYLEK        0.000606
1         PFEVPFLK        0.000569
2       EVVEEAENGR         0.00211
3         GLFIIDDK         0.00107

Then there is this sequence:
Value lookup for observed amide hydrogen exchange rate constant kobs; key = `LHFFMPGFAPLTSR`
0.00112

* * *

assay: observed amide hydrogen exchange rate constant kobs (stretched exponential fit, FD-normalized) (s^-1); higher = faster H/D exchange (less protection); conditions: pH 3 (pH read); temperature: 20 °C; D2O: 88%
Reported observed amide hydrogen exchange rate constant kobs values follow for various substances
Enter a number only.

>>> df
             substance  observed_value
0  YHTSQSGDEMTSLSEYVSR         0.00202
1             NFAFLEFR         0.00106
2            HQPTAIIAK         0.00045

Give its observed amide hydrogen exchange rate constant kobs value. Item: `LGDVYVNDAFGTAHR`
0.00197

* * *

test: observed amide hydrogen exchange rate constant kobs (stretched exponential fit, FD-normalized) (s^-1); higher = faster H/D exchange (less protection); conditions: pH 3 (pH read); temperature: 20 °C; D2O: 88%
Quantity kind: observed amide hydrogen exchange rate constant kobs
Answer with a bare number; do not write a unit.

Recorded results for 4 substances are shown here.
In [3]: df
Out[3]:
    substance  observed_value
0   TDTGEPMGR         0.00239
1     EIQTAVR           0.001
2   TLSDYNIQK         0.00134
3  AVDDGVNTFK         0.00173

API: the following record is the query input.
# query: observed amide hydrogen exchange rate constant kobs of entry `HEHQVMLMR`
0.00145

* * *

assay: observed amide hydrogen exchange rate constant kobs (stretched exponential fit, FD-normalized) (s^-1); higher = faster H/D exchange (less protection); conditions: pH 3 (pH read); temperature: 20 °C; D2O: 88%
Quantity kind: observed amide hydrogen exchange rate constant kobs
# print the numeric value only

>>> df
       substance  observed_value
0  EDSQRPGAHLTVK         0.00212
1   IMNTFSVVPSPK        0.000631
2        IIWQFIK        0.000404

Consider the additional substance presented here.
Quick one: observed amide hydrogen exchange rate constant kobs for `RVHPVSTMIK` ?
0.00129

* * *

assay: observed amide hydrogen exchange rate constant kobs (stretched exponential fit, FD-normalized) (s^-1); higher = faster H/D exchange (less protection); details: pH 3 (pH read); temperature: 20 °C; D2O: 88%
This section presents substances with their documented observed amide hydrogen exchange rate constant kobs values.
Output spec: single numeric token, no unit.

These solved cases illustrate the format of a correct answer.
>>> print(df.to_string())
      substance  observed_value
0  GLTPSQIGVILR         0.00062
1  VHLVGIDIFTGK         0.00113

// observed amide hydrogen exchange rate constant kobs lookup, key: `NLDIERPTYTNLNR`
0.00136

Need observed amide hydrogen exchange rate constant kobs, item `DLSTIEPLK`
0.000669

* * *

assay: observed amide hydrogen exchange rate constant kobs (stretched exponential fit, FD-normalized) (s^-1); higher = faster H/D exchange (less protection); settings: pH 3 (pH read); temperature: 20 °C; D2O: 88%
Classify by measured observed amide hydrogen exchange rate constant kobs: Fulfilled if it is equal to or exceeds 0.001, Not fulfilled if it is smaller.

Worked examples, 2 substances total:
In [3]: df
Out[3]:
                          substance  assigned_class
0  LQAALDDEEAGGRPAMEPGNGSLDLGGDSAGR       Fulfilled
1          VETGVLKPGMVVTFAPVNVTTEVK   Not fulfilled

In plain terms: is recorded observed amide hydrogen exchange rate constant kobs at least 0.001 for `IDNSQVESGSLEDDWDFLPPKK` ?
Fulfilled

Say whether `TEWLDGK` shows observed amide hydrogen exchange rate constant kobs of 0.001 or more.
Fulfilled

Dear colleague, could you confirm whether `AVDSQILPK` has observed amide hydrogen exchange rate constant kobs at or above 0.001?
Not fulfilled

For this substance, is measured observed amide hydrogen exchange rate constant kobs 0.001 or higher? `EANNFLWPFK`
Not fulfilled

Is the recorded value of observed amide hydrogen exchange rate constant kobs equal to or greater than 0.001 for this substance? `LISWYDNEFGYSNR`
Fulfilled

* * *

experiment: observed amide hydrogen exchange rate constant kobs (stretched exponential fit, FD-normalized) (s^-1); higher = faster H/D exchange (less protection); conditions: pH 3 (pH read); temperature: 20 °C; D2O: 88%
Entries and their observed amide hydrogen exchange rate constant kobs values follow.
Quick one: just the number, no unit, thanks!

Which observed amide hydrogen exchange rate constant kobs value is on record for `IEDGNNFGVAVQEK` ?
0.00127

Look at this substance and give its reported observed amide hydrogen exchange rate constant kobs. `IEEELGSK`
0.00244

* * *

experiment: observed amide hydrogen exchange rate constant kobs (stretched exponential fit, FD-normalized) (s^-1); higher = faster H/D exchange (less protection); details: pH 3 (pH read); temperature: 20 °C; D2O: 88%
Classification field: Criterion met = observed amide hydrogen exchange rate constant kobs at or over 0.001; Criterion not met = observed amide hydrogen exchange rate constant kobs under 0.001.

In [3]: df
Out[3]:
                         substance  assigned_class
0  TAMSTPHVAEPAENEQDEQDENGAEASADLR   Criterion met
1                      EALQDVEDENQ   Criterion met
2                 TFNTSTGGLLLPSDTK   Criterion met
3                      LDIDSPPITAR   Criterion met

Please turn your attention to the following entry.
API: above_or_equal(metric=observed amide hydrogen exchange rate constant kobs, cutoff=0.001) for item `ALAAFLK`
Criterion not met

* * *

assay: observed amide hydrogen exchange rate constant kobs (stretched exponential fit, FD-normalized) (s^-1); higher = faster H/D exchange (less protection); conditions: pH 3 (pH read); temperature: 20 °C; D2O: 88%
Quantity kind: observed amide hydrogen exchange rate constant kobs
The reply should be a number, written without any unit.

Below: 5 substances and their reported observed amide hydrogen exchange rate constant kobs.
>>> df
      substance  observed_value
0     NDLAVVDVR        0.000939
1    LLEPVLLLGK        0.000574
2  ELISNASDALDK         0.00184
3     AGLQFPVGR         0.00107
4    KSDVEAIFSK        0.000898

For the substance shown here, `VVDLLAPYAK` , give the reported observed amide hydrogen exchange rate constant kobs.
0.000767

Entry `NPDDITNEEYGEFYK` has what observed amide hydrogen exchange rate constant kobs?
0.00176

* * *

experiment: observed amide hydrogen exchange rate constant kobs (stretched exponential fit, FD-normalized) (s^-1); higher = faster H/D exchange (less protection); settings: pH 3 (pH read); temperature: 20 °C; D2O: 88%
Examples of substances with documented observed amide hydrogen exchange rate constant kobs follow.
Response field accepts a number only; no unit should be typed.

# annotated cases, reported observed amide hydrogen exchange rate constant kobs shown
In [3]: df
Out[3]:
                substance  observed_value
0            TSFFQALGITTK         0.00062
1  AAVPSGASTGIYEALELRDNDK         0.00126
2           DALSDLALHFLNK         0.00125
3             TYSYLTPDLWK        0.000805
4              IDTIEIITDR        0.000965
5         IEDLSQQAQLAAAEK          0.0009

Suppose we examine the substance `SADTLWDIQK` ; what observed amide hydrogen exchange rate constant kobs value has been reported?
0.000935

Looking for the measured observed amide hydrogen exchange rate constant kobs of `NNQFQALLQYADPVSAQHAK` , can you help?
0.000863

// query observed amide hydrogen exchange rate constant kobs value for entry `AYHEQLSVAEITNACFEPANQMVK`
0.00146

Reported observed amide hydrogen exchange rate constant kobs, substance `SYDVPPPPMEPDHPFYSNISK` : ____
0.00134

Give the measured observed amide hydrogen exchange rate constant kobs of `SIYGEK` .
0.00146

* * *

The following substances are shown together with reported observed amide hydrogen exchange rate constant kobs values.
assay: observed amide hydrogen exchange rate constant kobs (stretched exponential fit, FD-normalized) (s^-1); higher = faster H/D exchange (less protection); details: pH 3 (pH read); temperature: 20 °C; D2O: 88%
// print number alone

Guide cases for observed amide hydrogen exchange rate constant kobs, answers given:
>>> df
       substance  observed_value
0         NPLPSK        0.000929
1    ASILNTWISLK        0.000492
2  HELLQPFNVLYEK         0.00104

# observed amide hydrogen exchange rate constant kobs lookup, item `SIYYITGESK`
0.00108

Which observed amide hydrogen exchange rate constant kobs value is on record for `TAFQEALDAAGDK` ?
0.00172

May I ask what observed amide hydrogen exchange rate constant kobs has been recorded for `ILQDGGLQVVEK` ?
0.000978

I'd like to know its observed amide hydrogen exchange rate constant kobs. The substance in question is `GNSIIMLEALERV`
0.00109

Bench note: what observed amide hydrogen exchange rate constant kobs did `FEDENFILK` show?
0.00131
